Just for reference, patent US10526316B2 is where these values come from.

target: PI3Kβ (Homo sapiens, UniProt P42338); construct: purchased DiscoveRx Corporation, San Diego (contract service, KINOMEscan); experiment: Enzyme binding assay (KINOMEscan, DiscoveRx); settings: PIK3Cβ_h, read-out: Kd PIK3Cβ_h
Sequence (P42338 whole entry): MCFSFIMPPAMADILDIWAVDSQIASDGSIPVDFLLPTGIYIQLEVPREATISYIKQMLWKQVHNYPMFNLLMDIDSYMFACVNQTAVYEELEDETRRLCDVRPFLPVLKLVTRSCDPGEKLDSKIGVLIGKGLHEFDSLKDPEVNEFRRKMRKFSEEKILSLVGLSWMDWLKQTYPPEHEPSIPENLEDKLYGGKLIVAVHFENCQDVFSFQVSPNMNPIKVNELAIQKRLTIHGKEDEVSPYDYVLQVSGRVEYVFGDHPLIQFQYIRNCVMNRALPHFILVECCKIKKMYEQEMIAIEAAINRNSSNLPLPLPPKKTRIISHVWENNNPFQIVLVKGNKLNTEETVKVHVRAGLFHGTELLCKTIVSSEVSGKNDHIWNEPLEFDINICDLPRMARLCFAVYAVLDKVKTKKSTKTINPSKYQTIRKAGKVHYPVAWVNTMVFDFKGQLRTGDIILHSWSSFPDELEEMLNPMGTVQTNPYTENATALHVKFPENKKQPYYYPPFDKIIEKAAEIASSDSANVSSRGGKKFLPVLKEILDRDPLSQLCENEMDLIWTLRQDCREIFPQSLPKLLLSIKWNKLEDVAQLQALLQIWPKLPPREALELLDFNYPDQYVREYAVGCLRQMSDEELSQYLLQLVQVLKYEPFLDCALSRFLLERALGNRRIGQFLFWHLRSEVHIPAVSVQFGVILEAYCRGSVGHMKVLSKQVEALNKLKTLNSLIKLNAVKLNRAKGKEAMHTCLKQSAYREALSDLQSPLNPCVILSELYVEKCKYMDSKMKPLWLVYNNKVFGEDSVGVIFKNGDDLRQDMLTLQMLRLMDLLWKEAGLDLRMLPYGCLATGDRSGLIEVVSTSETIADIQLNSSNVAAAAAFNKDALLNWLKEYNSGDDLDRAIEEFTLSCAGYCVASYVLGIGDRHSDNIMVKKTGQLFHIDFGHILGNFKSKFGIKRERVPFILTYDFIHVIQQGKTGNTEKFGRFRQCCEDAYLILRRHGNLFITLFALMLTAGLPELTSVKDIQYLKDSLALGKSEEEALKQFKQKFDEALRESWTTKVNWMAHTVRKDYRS
pKd: −log10 of the molar value.
Where pKd equals or exceeds 8, the correct label is fulfilled; where it does not, the label is not fulfilled.

{"compound": "CC(Nc1ccc(F)c(F)c1)c1cc(C(=O)N2CC[C@@H](O)C2)cc2ncc(N3CCOCC3)nc12 (single isomer, unassigned) [Compound 300b]", "classAssignment": "not fulfilled"}

Is it the case that CC(Nc1cc(F)cc(F)c1)c1cc(C(=O)N(C)C)cc2ncc(C3=CCOCC3)nc12 (single isomer, unassigned) [Compound 158] has pKd reaching or exceeding 8?
fulfilled

Is it the case that O=C(c1cc(C2CCCN2c2cc(F)cc(F)c2)c2nc(N3CCOCC3)cnc2c1)N1CCC1 (single isomer, unassigned) [Compound 33] has pKd reaching or exceeding 8?
fulfilled

Is it the case that COc1cc(NC(C)c2cc(C(=O)N3CCOCC3)cc3ncc(N4CCOCC4)nc23)cc(OC)c1 (stereo not drawn) has pKd reaching or exceeding 8?
not fulfilled

Is it the case that CC(Nc1cc(F)cc(F)c1)c1cc(C(=O)N2CCC(NCC(F)(F)F)C2)cc2ncc(N3CCOCC3)nc12 (stereo not drawn) has pKd reaching or exceeding 8?
fulfilled
